test: Drug level in blood of incomplete Freund's adjuvant-induced autoimmune encephalomyelitis DA rat model at 2 mg/kg, po bid administered 2 days before the induction of EAE; type: organism-based; design: dose 2 mg/kg, route oral; conditions: whole blood, read-out: Drug uptake
measured-parameter: concentration at 48 h (nM)
Answers are plain numbers, in nM.

Please fill in: concentration at 48 h reported for `C[C@@H]1CN(c2nnc(Cc3ccccc3)c3ccc(Cl)cc23)CCN1c1ccc(C#N)cn1` = 840

----------
Task for the reader: assign each of the following compounds its reported pIC50.
target: UniProt:O95470; assay: biochemical
Description: Inhibition of human recombinant S1PL (62 to 568) expressed in Sf9 insect cells using S1P as substrate after 1 hr
Answers are plain numbers, as −log10 of the molar value.

See these solved cases before continuing.
| sample-smiles | pIC50 |
| --- | --- |
| C[C@@H]1CN(c2nnc(CCc3ccccc3)c3ccccc23)CCN1c1ccc(C#N)cn1 | 4.52 |
| C[C@@H]1CN(c2nnc(Cc3ccccc3)c3cc(Cl)ccc23)CCN1c1ccc(C#N)cn1 | 5.64 |
| C[C@@H]1CN(c2nnc(Cc3ccccc3)c3ccccc23)CCN1c1ccc([N+](=O)[O-])cn1 | 6.13 |
| CC(C)[C@@H]1CN(c2nnc(Cc3ccccc3)c3ccccc23)CCN1c1ccc(C#N)cn1 | 5.60 |
| C[C@@H]1CN(c2nnc(Cc3ccccc3)c3ccc(Cl)cc23)CCN1c1ccc(C#N)cn1 | 6.68 |
| C[C@@H]1CN(c2nnc(Cc3ccccc3)c3ccccc23)CCN1c1ccc(C(F)(F)F)cn1 | 4.52 |

Hello, I would appreciate it if you could give pIC50 for each entry below.
1. CCCCCCCCc1ccc(CCC(N)(CO)CO)cc1
2. CCOC(=O)c1ccc(N2CCN(c3nnc(Cc4ccccc4)c4ccccc34)C[C@H]2C)nc1
3. C[C@@H]1CN(c2nnc(Cc3ccccc3)c3cc(C(F)(F)F)ccc23)CCN1c1ccc(C#N)cn1
4. C[C@@H]1CN(c2nnc(Cc3ccccc3)c3ccccc23)CCN1c1ccc(C#N)cn1
5. CC[C@@H]1CN(c2nnc(Cc3ccccc3)c3ccccc23)CCN1c1ccc(C#N)cn1

Reply:
4.77
5.47
4.92
5.62
5.77

The following compounds each have a reported value; give each one's pIC50.
1. C[C@@H]1CN(c2nnc(Cc3ccccc3)c3cc(C#N)ccc23)CCN1c1ccc(C#N)cn1
2. C[C@@H]1CN(c2nnc(Cc3ccccc3)c3ccc(C(F)(F)F)cc23)CCN1c1ccc(C#N)cn1

Reply:
5.89
7.00

----------
assay: Plasma concentration in Wistar rat at 2 mg/kg, po administered ever 12 hrs for 4 times measured 12 hrs after last dose; assay type: ADME, organism-based; set-up: dose 2 mg/kg, route oral
measured-parameter: concentration at 12 h (nM)
One number for each entry, in nM.

Record summary for `C[C@@H]1CN(c2nnc(Cc3ccccc3)c3ccc(Cl)cc23)CCN1c1ccc(C#N)cn1` : reported concentration at 12 h = 400

----------
experiment: AUC (0 to infinity) in Sprague-Dawley rat at 3 mg/kg, po; assay type: ADME, organism-based, Plasma; set-up: time infinity, dose 3 mg/kg, route oral; conditions: blood
measured-parameter: AUC(0-inf) (µM·h)
One number for each entry, in µM·h.

The compound identified as `C[C@@H]1CN(c2nnc(Cc3ccccc3)c3ccc(Cl)cc23)CCN1c1ccc(C#N)cn1` registered its AUC(0-inf) at 1.3

----------
experiment: Cmax in Sprague-Dawley rat at 3 mg/kg, po; type: ADME, organism-based; design: dose 3 mg/kg, route oral; details: in vivo
measured-parameter: Cmax (nM)
Answers are plain numbers, in nM.

According to the records, this compound `C[C@@H]1CN(c2nnc(Cc3ccccc3)c3ccc(Cl)cc23)CCN1c1ccc(C#N)cn1` displays Cmax of 99

----------
assay: Half life in Sprague-Dawley rat at 1 mg/kg, iv; assay type: ADME, organism-based; set-up: dose 1 mg/kg, route intravenous; conditions: in vivo
measured-parameter: half-life (h)
Answers are plain numbers, in h.

Reported half-life of `C[C@@H]1CN(c2nnc(Cc3ccccc3)c3ccc(Cl)cc23)CCN1c1ccc(C#N)cn1` : 9.1

----------
experiment: Drug level in brain of incomplete Freund's adjuvant-induced autoimmune encephalomyelitis DA rat model at 2 mg/kg, po bid administered 2 days before the induction of EAE; type: organism-based; set-up: dose 2 mg/kg, route oral; conditions: read-out: Drug uptake
measured-parameter: concentration at 48 h (nM)
One number for each entry, in nM.

Recorded concentration at 48 h (compound `C[C@@H]1CN(c2nnc(Cc3ccccc3)c3ccc(Cl)cc23)CCN1c1ccc(C#N)cn1` ): 610

----------
experiment: Blood clearance in Sprague-Dawley rat at 1 mg/kg, iv; type: ADME, organism-based; design: dose 1 mg/kg, route intravenous; settings: whole blood
measured-parameter: clearance (mL/min/kg)
Answers are plain numbers, in mL/min/kg.

Query `C[C@@H]1CN(c2nnc(Cc3ccccc3)c3ccc(Cl)cc23)CCN1c1ccc(C#N)cn1` yields clearance of 23

----------
biological target: Sphingosine-1-phosphate lyase 1 (Homo sapiens); assay: Inhibition of S1PL (unknown origin)
Sequence (O95470 whole entry): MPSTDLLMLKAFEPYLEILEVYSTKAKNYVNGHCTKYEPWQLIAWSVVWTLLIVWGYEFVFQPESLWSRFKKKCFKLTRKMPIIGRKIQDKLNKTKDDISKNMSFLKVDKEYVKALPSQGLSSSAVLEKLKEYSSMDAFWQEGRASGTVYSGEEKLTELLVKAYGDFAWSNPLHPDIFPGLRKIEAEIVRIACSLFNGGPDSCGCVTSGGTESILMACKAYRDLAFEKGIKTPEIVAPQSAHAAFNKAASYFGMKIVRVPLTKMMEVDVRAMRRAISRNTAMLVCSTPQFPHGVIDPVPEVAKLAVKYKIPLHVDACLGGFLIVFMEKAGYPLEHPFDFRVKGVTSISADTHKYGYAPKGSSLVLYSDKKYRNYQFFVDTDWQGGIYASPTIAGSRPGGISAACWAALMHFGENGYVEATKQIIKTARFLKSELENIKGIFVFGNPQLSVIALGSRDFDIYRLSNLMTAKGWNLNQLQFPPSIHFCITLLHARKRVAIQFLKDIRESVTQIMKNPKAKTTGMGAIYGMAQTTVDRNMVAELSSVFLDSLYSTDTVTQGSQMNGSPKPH
pIC50: −log10 of the molar value.
measured-parameter: pIC50

| sample-smiles | system-name | measured-parameter | reported |
| --- | --- | --- | --- |
| C/C(=N\O)c1nc([C@@H](O)[C@H](O)[C@H](O)CO)c[nH]1 | Sphingosine-1-phosphate lyase 1 (Homo sapiens) | pIC50 | < 4.00 |

Each of the following entries comes with a recorded value; kindly state pIC50 for each.
1. CC(=O)c1nc([C@@H](O)[C@H](O)[C@H](O)CO)c[nH]1
2. CCCCCCCCc1ccc(CCC(N)(CO)CO)cc1

Reply:
["< 4.00", 4.77]
